Measured pIC50 by item
# Method Notes: Antiproliferative activity against human SGC7901 cells after 72 hrs by MTT assay
# Format: functional, cell-based
# Test Conditions: SGC-7901, 72 h
pIC50: −log10 of the molar value.
Parameter: pIC50

1. C[C@@H]1[C@H](OC(=O)/C=C/c2ccc(Br)cc2)C[C@H]2[C@@H](C)[C@H](OC(=O)/C=C/c3ccc(Br)cc3)O[C@@H]3O[C@@]4(C)CC[C@@H]1[C@]32OO4 :: 4.45
2. C[C@@H]1[C@H](OC(=O)/C=C/c2cccc(Cl)c2)C[C@H]2[C@@H](C)[C@H](OC(=O)/C=C/c3cccc(Cl)c3)O[C@@H]3O[C@@]4(C)CC[C@@H]1[C@]32OO4 :: 4.92
3. C[C@@H]1[C@H](OC(=O)/C=C/c2ccc(Cl)cc2)C[C@H]2[C@@H](C)[C@H](OC(=O)/C=C/c3ccc(Cl)cc3)O[C@@H]3O[C@@]4(C)CC[C@@H]1[C@]32OO4 :: 4.67
4. COc1cc(/C=C/C(=O)O[C@@H]2O[C@@H]3O[C@@]4(C)CC[C@H]5[C@H](C)[C@H](OC(=O)/C=C/c6cc(OC)c(OC)c(OC)c6)C[C@@H]([C@H]2C)[C@@]35OO4)cc(OC)c1OC :: 4.93
5. COc1ccc(/C=C/C(=O)O[C@@H]2O[C@@H]3O[C@@]4(C)CC[C@H]5[C@H](C)[C@H](OC(=O)/C=C/c6ccc(OC)c(OC)c6)C[C@@H]([C@H]2C)[C@@]35OO4)cc1OC :: 5.31
6. C[C@@H]1[C@H](O)C[C@H]2[C@@H](C)[C@H](OC(=O)/C=C/c3ccc(C(F)(F)F)cc3)O[C@@H]3O[C@@]4(C)CC[C@@H]1[C@]32OO4 :: 4.07
